- assayedSystem: T1, talin-1 head domain (THD1) (UniProt P26039 1-405)
- T1 chain: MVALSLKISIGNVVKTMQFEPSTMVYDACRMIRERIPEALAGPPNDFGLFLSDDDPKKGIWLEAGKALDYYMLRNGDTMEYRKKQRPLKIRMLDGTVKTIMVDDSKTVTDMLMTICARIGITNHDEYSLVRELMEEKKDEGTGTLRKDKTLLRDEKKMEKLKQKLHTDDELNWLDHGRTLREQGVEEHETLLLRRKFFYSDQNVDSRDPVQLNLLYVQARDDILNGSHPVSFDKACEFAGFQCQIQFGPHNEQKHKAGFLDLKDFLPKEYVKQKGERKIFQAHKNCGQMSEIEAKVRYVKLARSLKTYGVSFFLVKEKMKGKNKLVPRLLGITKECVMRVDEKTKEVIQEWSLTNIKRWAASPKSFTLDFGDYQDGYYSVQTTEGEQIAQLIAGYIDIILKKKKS
- test: MST; apparent, with KIND2
No end group written: not given here.
observedProperty: Kd (µM)
Answers are plain numbers, in µM.

input: Tell us which Kd value is on record for {ATTO 488}-KLLMIIHDRREFAKFEKEKMNAKWDTGENPIYKSAVTTVVNPKYEGK [ATTO 488-labelled β1-CT (488–β1-CT)]
output: 153
